Data credit: PubChem BioAssay (NCI)

# Test system: A549/ATCC NSCLC
# measurement-notes: NCI-60 one-dose screen, 48 h (100 = growth as untreated, 0 = no growth, -100 = all killed)
# measurement-setup: 10 µM unless noted
This is part of a sample that, as a whole, favours compounds with a hit. Of some 83,000 tested, about 20% had one in any assay.
growth overview
assay-metric: growth (%)

compound | system | observed-result
C=C(C)[C@@H]1CC[C@]2(CO)CC[C@]3(C)[C@H](CC[C@@H]4[C@@](C)(CCCN)[C@H](C(=C)C)CC[C@]43C)[C@@H]12 | A549/ATCC NSCLC | -68.8
CCOC(=O)C/C(=N\Nc1cc(=O)[nH]c2ccc(C)cc12)C(=O)OCC | A549/ATCC NSCLC | 107
C[C@H]1[C@H](C)CC[C@]2(C(=O)NCCNCCN)CC[C@]3(C)C(=CC[C@@H]4[C@@]5(C)CCC(=O)C(C)(C)[C@@H]5CC[C@]43C)[C@H]12 | A549/ATCC NSCLC | 42.4
COc1ccc(C2[C@@H](c3ccccc3)C(=O)N2c2cc(OC)c(OC)c(OC)c2)cc1F (stereo not given in full) | A549/ATCC NSCLC | 8.88
O=C(O)c1cn(C2CC2)c2cc(N3CCN(C(=O)N/N=C/c4cccc5ccccc45)CC3)c(F)cc2c1=O | A549/ATCC NSCLC | 106
COCCn1cc(-c2csc(-c3c[nH]c4ccc(F)cc34)n2)c2cccnc21 | A549/ATCC NSCLC | 22.1
CC(C)c1ccc2c(c1)CC[C@H]1[C@](C)(C(=O)OCC#CCN3CCCC3)CCC[C@]21C | A549/ATCC NSCLC | 75
CCOC(=O)CNC1=C(Cl)C(=O)N(Cc2ccc(Cl)cc2)C1=O | A549/ATCC NSCLC | 106
CN(C)c1ccc(C(=S)c2ccc(N(C)C)cc2)cc1 | A549/ATCC NSCLC | 67
Nc1nc2ccccc2c2c(=O)c3cc(Cl)ccc3sc12 | A549/ATCC NSCLC | 93.9
CN(C)C1CN(C(=O)c2cc(-c3ccc4ncnc(N5CCc6cc(F)c(Cl)cc65)c4c3)cnc2N)C1 | A549/ATCC NSCLC | 6.53
COc1cc2ncnc(Nc3ccc(S(=O)(=O)Nc4nccs4)cc3)c2cc1OCCCN1CCCC1 | A549/ATCC NSCLC | 102
CCCCC#Cc1c(I)n(C2OC(CO[Si](C)(C)C(C)(C)C)C3OC(C)(C)OC32)c(=O)n(C(=O)c2ccccc2)c1=O (stereo not given) | A549/ATCC NSCLC | 67.7
O=c1oc2c(cnc3ccccc32)cc1-c1cccc(Cl)c1 | A549/ATCC NSCLC | 104
CCN1CCN(CCNc2nccc(-c3c(-c4ccc(F)c(O)c4)nc4occn34)n2)S1(=O)=O | A549/ATCC NSCLC | 23
COc1nc(/C=C\Nc2ccc3c(c2)OCCOCCOCCOCCO3)nc(OC)n1 | A549/ATCC NSCLC | 99.2
CS(=O)/C(C#N)=C\C=C\c1cccc(Cl)c1 (stereo not given) | A549/ATCC NSCLC | 20
Cc1ccc(O)c(NC(=O)c2cccc(Nc3ccnc(C(F)(F)F)c3)c2)c1 | A549/ATCC NSCLC | 60.3
COc1ccc(N=C2NN=C(c3c[nH]c4ccccc34)CS2)cc1OC | A549/ATCC NSCLC | 55
CC[C@@H](C(=O)[C@@H](C)[C@@H](O)[C@H](C)[C@@H]1O[C@@H]([C@@H](CC)C(=O)ONC(=O)c2ccccc2O)CC[C@@H]1C)C1O[C@]2(C=CC(=O)[C@]3(CC[C@@](C)([C@H]4CC[C@](O)(CC)[C@H](C)O4)O3)O2)[C@H](C)C[C@@H]1C (stereo not given in full) | A549/ATCC NSCLC | 23.8
Cc1ccc(C)c2c1sc1nc(N3CCOCC3)c(C#N)c(=O)n12 | A549/ATCC NSCLC | 98.4
Fc1ccc2[nH]cc(-c3nc(-c4c[nH]c5c(Cl)nccc45)cs3)c2c1 | A549/ATCC NSCLC | 22.5
COc1cc(-c2ccc(-c3ccc(C(=N)N)cc3)s2)cc(OC)c1OC | A549/ATCC NSCLC | 75.4
Cc1ccc2c(c1)=C/C(=C\c1cc(-c3ccccc3)[nH]c1O)C(=O)N=2 | A549/ATCC NSCLC | 46.2
CSc1ccc2c3c(n(C[C@H](O)CO)c(=O)c2c1)-c1ccccc1C3=O | A549/ATCC NSCLC | 14.5
Fc1cccc(CNc2c3ccccc3nc3ccccc23)c1 | A549/ATCC NSCLC | 29.3
ClC(Cl)c1nc(-c2ccccc2)n2nc(-c3ccccc3)cc2n1 | A549/ATCC NSCLC | -16.2
CCC(C)(C)c1ccc(Nc2ccc(Nc3ccc(C(C)(C)CC)cc3)cc2)cc1 | A549/ATCC NSCLC | 90.4
CCCCCCCCCCOC(=O)c1nn(C(C)=O)c2cc(C)c(C)cc12 | A549/ATCC NSCLC | 83.8
Nc1[nH]nc2nc(-c3ccccc3)n3c4ccccc4nc3c12 | A549/ATCC NSCLC | 101

---

# Tested on: CAKI-1 renal
# measurement-notes: NCI-60 one-dose screen, 48 h
# measurement-setup: 10 µM unless noted
The panel holds about 83,000 compounds, 20% with a hit somewhere; the sample as a whole holds those more often. Activity calls are given as the source filed them. The calls were made as follows: active = growth percent below 10; inactive = the rest.
Labels: yes (1) (active), no (0) (inactive)

molecule | label
CCCC(=O)NC(c1ccc2c(c1)OCO2)c1cc(Cl)c2cccnc2c1O (configuration not stated) | no (0)
CC(C)(Sc1cc(C(C)(C)C)c(O)c(C(C)(C)C)c1)Sc1cc(C(C)(C)C)c(OC(=O)CCC(=O)O)c(C(C)(C)C)c1 | no (0)
O=C(Nc1nc(Cl)nc(Nc2ccc(N3CCOCC3=O)cc2)n1)c1ccc(Cl)s1 | no (0)
COc1cccc(-c2cn3nc(-c4cn(C)c5ccccc45)sc3n2)c1 | no (0)
CS(=O)(=O)c1ccc(-c2nc3ccccc3n2CC(=O)N/N=C/c2ccccc2)cc1 | no (0)
CN1C(=O)/C(=C/c2ccc(C(=O)Nc3ncc(Cc4cccc(C(F)(F)F)c4)s3)cc2)SC1=S | no (0)
COc1cc(-c2ccc[nH]2)[nH]c1/C=C1\N=C(C)C(CC(=O)OCC(C)(C)C)=C1C | yes (1)
COc1ccc(-c2cn(Cc3cc4ccccc4s3)nn2)cc1OCCN1CCCCC1 | no (0)
COc1cc2c(c(OC)c1OC)CCC(c1cccc(C(=O)Nc3ccc(Br)cc3)c1)O2 (configuration not stated) | no (0)
Cn1cc(-c2nc3c(F)cc4[nH]ncc4c3c3c2CCCC3)c(C(F)(F)F)n1 | no (0)
CCOC(=O)/C=C1\S/C(=N\Nc2cc(=O)[nH]c3ccc(Br)cc23)N(c2ccccc2)C1=O | no (0)
N#CSc1c[nH]c2ccc(/C=C/C(=O)/C=C(O)/C=C/c3ccc4[nH]cc(SC#N)c4c3)cc12 | no (0)
COc1cc(O)c2c(=O)c3c(CC=C(C)C)cc(OC)c(O)c3oc2c1 | no (0)
CCN(CC)CCN1C(=O)c2c(c3c4ccccc4[nH]c3c3ccc4ccccc4c23)C1=O | no (0)
CCOC(=O)CC[C@H](NC(=O)c1ccc(N(C)Cc2cnc3nc(N)nc(N)c3n2)c2ccccc12)C(=O)OCC | no (0)
C[C@H](c1nc2ccc(C#N)cc2[nH]1)[C@H]1CC[C@H]2[C@@H]3CCC4=CC(=O)CC[C@]4(C)[C@H]3CC[C@]12C | no (0)
O=C(NN1C(=O)CSC1c1cccc([N+](=O)[O-])c1)c1ccc(NC(=O)c2ccccn2)cc1 (configuration not stated) | no (0)
O=C(O)CCCCCCCCCCN1C(=O)/C(=C2/C(=O)N(CC(=O)O)c3ccc(Br)cc32)SC1=S | no (0)
c1ccc(-c2ccc3c(c2)C2(CCNCC2)CN3)cc1 | no (0)
CCSc1ccnc(N)n1 | no (0)
Cc1ccc2c(c1)=C/C(=C\c1cc(-c3ccccc3)[nH]c1O)C(=O)N=2 | no (0)
O=C(Nc1cccnc1Nc1ccccc1)c1cn(Cc2cccc(Oc3ccccc3)c2)nn1 | no (0)
O=C(NCCN1CCOCC1)OCc1ccc2c(Cl)cc(Cl)c(O)c2n1 | no (0)
O=C(C1=Cc2cc3ccccc3n2Cc2cnnn21)c1ccc(F)cc1 | no (0)
C=C(C)[C@@H]1CC[C@]2(CO)CC[C@]3(C)[C@H](CC[C@@H]4[C@@](C)(CCCN)[C@H](C(=C)C)CC[C@]43C)[C@@H]12 | yes (1)
O=C(Cc1ccc(/C=C/C(=O)c2ncc[nH]2)cc1)Nc1cc(F)c(F)c(F)c1 | no (0)
COc1ccccc1/C=C/C(=O)Nc1ccc(F)cc1 | no (0)
